Taken from PubChem BioAssay AID2060501.

Test system: 282377-053-R-J1-PDC complex spheroids, viability;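 further: spheroids exposed to compounds for 7 days before readout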
assay.name: Anticancer human tumor 282377-053-R-J1-PDC patient-derived colon adenocarcinoma cell line growth inhibition [GQUAD]
test.settings: second compound 10 µM; first compound 1 µM; active compounds read low
Mark Satisfied only when viability, T/C stays strictly below 10%. Values equal to the cut-off are Not satisfied.

Exercise: Say whether its viability, T/C is strictly beneath 10%. Entry: C#Cc1c(F)ccc2cc(O)cc(-c3ncc4c(N5CC6CCC(C5)N6)nc(OCC56CCCN5CC(F)C6)nc4c3F)c12 (stereo not given) + CN(C)c1ccc(Nc2c3ccc(NC(=O)CCN4CCCC4)cc3nc3cc(NC(=O)CCN4CCCC4)ccc23)cc1
Solution: Not satisfied

Exercise: Say whether its viability, T/C is strictly beneath 10%. Entry: COc1ncnc(C2CC2)c1-c1ncc2cnn(Cc3ccc(-c4nc(C(F)(F)F)cn4C(C)C)cc3)c2n1 + Cc1[nH]c2ccc(F)cc2c1-c1nc2c3cccnc3c3ncccc3c2[nH]1
Solution: Not satisfied

Exercise: Say whether its viability, T/C is strictly beneath 10%. Entry: COc1ccc([C@@H](O)c2cc(-c3ncnc4cc(N5CCOCC5)ccc34)c(F)cc2Cl)nn1 + Cc1[nH]c2ccc(F)cc2c1-c1nc2c3cccnc3c3ncccc3c2[nH]1
Solution: Not satisfied

Exercise: Say whether its viability, T/C is strictly beneath 10%. Entry: O=C(NO)c1cnc(N2CCN(S(=O)(=O)c3ccc4ccccc4c3)CC2)nc1 + CN(C)c1ccc(Nc2c3ccc(NC(=O)CCN4CCCC4)cc3nc3cc(NC(=O)CCN4CCCC4)ccc23)cc1
Solution: Satisfied

Exercise: Say whether its viability, T/C is strictly beneath 10%. Entry: Nc1ccn(C2OC(CO)C(O)C2(F)F)c(=O)n1 (stereo not given) + Cc1[nH]c2ccc(F)cc2c1-c1nc2c3cccnc3c3ncccc3c2[nH]1
Solution: Not satisfied
